system: Mus musculus; assay: Antioxidant activity in Kunming mouse CFA-induced arthritis model assessed as superoxide dismutase activity in serum at 25 mg/kg/day, po for 1 week administered on day 8 post CFA induction by ELISA (reference value: 66.7 +/- 0.9 U/ml); format: functional
Exercise: state measured Activity for each of the molecules provided.
Please give the number followed by its unit.

The cases that follow already have their Activity on record.
# compound_structure, measured_result
rows = [
    ("COc1ccc(C(C)=O)c(O)c1", "62.5 U/ml"),
    ("COc1cc(O)c(C(C)=O)cc1Br", "76.3 U/ml"),
    ("CCCCCCCCCCCCCCCCOc1cc(OC)ccc1C(C)=O", "72.1 U/ml"),
]

Exercise: Item under review: "CCCCCCCCCCCCCCCCOc1cc(OC)c(Br)cc1C(C)=O" . Reported Activity?
Solution: 73.9 U/ml
